B1: STK38L (parent)
chain: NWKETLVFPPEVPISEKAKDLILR

Variants of: B1
TEST_SUMMARY: protein stability index of a GFP-peptide fusion (GPS, HEK-293T) (PSI 1-6); higher = more stable;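 also: lentivirally expressed fusions sorted by FACS into six bins by GFP to DsRed ratio, PSI derived from sequencing read proportions per bin multiplied by bin number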
PARTICULARS: c terminus: a fixed tail appended
MEASUREMENT_LABEL: protein stability index
One number for each entry.

Use the examples below as a reference point.
Return protein stability index for the following variant: P9K
2.68

Return protein stability index for the following variant: L6M
3.31

Return protein stability index for the following variant: V7F
2.63

Return protein stability index for the following variant: I22P
4.36

For each listed entry, give its protein stability index.
1. A18R
2. E4I
3. K17P

1: 3.69; 2: 1.69; 3: 3.41

For each listed entry, give its protein stability index.
1. F8S
2. P9M

[3.73, 2.05]

For each listed entry, give its protein stability index.
1. I14K
2. E16R
3. S15Q
4. F8H
5. T5M
6. W2T
7. W2Y

4.07
2.48
3.87
3.33
2.75
4.64
3.25

For each listed entry, give its protein stability index.
1. A18D
2. V7N
3. K19M

1: 3.76; 2: 3.63; 3: 2.19

For each listed entry, give its protein stability index.
1. V12D
2. K17I
3. K17V
4. P10C
5. A18Y
6. I22A

1: 3.55; 2: 1.92; 3: 2.21; 4: 2.81; 5: 2.45; 6: 4.17

For each listed entry, give its protein stability index.
1. V7R
2. L23N
3. K3E
4. W2F
5. E4R
6. I22S
7. P13L

[2.72, 4.09, 3.41, 3.37, 1.97, 3.89, 2.42]

For each listed entry, give its protein stability index.
1. V12Y
2. V7D
3. K3V
4. P9Y

1. 2.62
2. 3.81
3. 2.53
4. 1.96

For each listed entry, give its protein stability index.
1. K19G
2. L23S
3. D20I
4. P10A
5. K3D

1: 2.96; 2: 3.94; 3: 1.52; 4: 2.65; 5: 3.69
